Reference source: PubChem BioAssay AID179

- Tested on: CEM cells HIV-1 protection, formazan growth assay
- method: NCI AIDS Antiviral Assay
- condition info: measured here: growth of uninfected CEM cells
pIC50: −log10 of the molar value.
Record form. Attribute: pIC50. Fill in for each entry.

Cn1c(=O)c(-c2ccccc2)c(O)c2ccccc21 ... < 3.70
Nc1nc(N)c2ncn(CCOC(c3ccccc3)P(=O)(O)O)c2n1 (stereo unspecified) ... < 3.70
Clc1ccc(Cl)c(N=Nc2cc3c4c(c2)CCN4CCC3)c1 ... < 4.00
CC1(O)c2ccccc2CCc2ccccc21 ... < 4.49
N#Cc1c(=O)[nH]c(=O)n2c1[nH]c1ccccc12 ... < 3.70
O=C1CCCC(=O)NNC(=O)Nc2ccc(cc2)Cc2ccc(cc2)NC(=O)NN1 ... < 4.51

Provide pIC50 values for the following items, in order.
1. Oc1ccc(C2SCc3nc4ccccc4n32)cc1 (stereo unspecified)
2. CC(=O)CCC#Cc1ccccc1C(=O)C(C)=[N+]=[N-]

Out:
["< 4.57", "< 4.30"]

Provide pIC50 values for the following items, in order.
1. O=C(NCCCCCCNC(=O)NCc1ccco1)NCc1ccco1
2. CCOC(=O)c1c(SCCN2CCCCC2)n(-c2ccccc2)c(=S)n(-c2ccccc2)c1=O
3. NC(CCSSCCC(N)P(=O)(O)O)P(=O)(O)O (stereo unspecified)
4. Cc1cc([N+](=O)[O-])c(C)c2c1[nH]c1ccc(/C(CCC3CCCC3)=N\N)cc12
5. COc1ncnc2c1ncn2C1OC(CO)CC1F (stereo unspecified)

Out:
1: < 4.84; 2: < 4.70; 3: < 3.70; 4: < 5.00; 5: < 3.73

Provide pIC50 values for the following items, in order.
1. O=c1ccc(=O)n(-c2ccc(Cl)cc2)[nH]1
2. S=c1sc2c(s1)SCc1cccc(n1)CSc1sc(=S)sc1SCc1cccc(n1)CS2

Out:
< 3.79
< 3.70

Provide pIC50 values for the following items, in order.
1. CCCCc1ccc(C(N)=O)nc1
2. C=CC1(c2ccc(Br)cc2)OCCCO1
3. CCOC(=O)c1c(-c2ccccc2)c(OC)cn1C
4. CC1=N/C(=C\c2ccccc2Br)C(=O)O1

Out:
["< 3.70", "< 3.70", "< 3.70", "< 4.01"]

Provide pIC50 values for the following items, in order.
1. NC(=O)/C(=N\NC(=O)C[n+]1ccccc1)C1NC(=O)NC1=O (stereo unspecified)
2. O=C1c2cc([N+](=O)[O-])ccc2-c2ccc3c4ccc5c6c(ccc(c7ccc1c2c73)c64)C(=O)c1cc([N+](=O)[O-])ccc1-5

Out:
["< 3.83", "< 4.00"]

---

- Tested on: CEM cells HIV-1 protection, formazan growth assay
- method: NCI AIDS Antiviral Assay;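 active = compounds giving half or more protection of infected cells from virus-caused growth loss, again on retest; inactive = the rest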
The categories you may choose from are active, inactive

CC(=O)OC1C2C(=C(C)C(=O)O[C@@H]2c2ccoc2)[C@@]2(C)C3CCC(C)(C(=O)O3)C12 (some centres undefined) ... active
N#CC(C#N)=Cc1ccc(Cl)cc1 ... inactive
C/C(=C\c1ccc(F)cc1)C(=O)O ... inactive
Cc1cc(Br)ccc1Nc1nc(N)nc(N)c1N=O ... inactive
COC(=O)C(C(=O)C(=O)Nc1c(C)cccc1C)c1cnc2ccccc2n1 (centres undefined) ... inactive

In: Could you please tell me the result logged for OC[C@H]1CC(c2nn[nH]n2)[C@H](O)[C@@H]1O (some centres undefined) in this assay?
Out: inactive

In: Could you please tell me the result logged for Cc1ccc(/C=C2\Sc3scc(-c4ccccc4)[n+]3C2=O)cc1 in this assay?
Out: inactive

In: Could you please tell me the result logged for CCN(CC)S(=O)(=O)c1ccc([O-])c(C(=O)[O-])c1.[Cu+2].[OH3+] in this assay?
Out: inactive

In: Could you please tell me the result logged for Cc1c2cc(Cl)ccc2n2c(=O)c3ccccc3[nH]c(=O)c12 in this assay?
Out: inactive

---

- System: CEM cells HIV-1 protection, formazan growth assay
- method: NCI AIDS Antiviral Assay
- condition info: measured here: growth of uninfected CEM cells
pIC50: −log10 of the molar value.
Record form. Attribute: pIC50. Fill in for each entry.

Below, 10 molecules whose answers are already recorded.
CC(C)N(C(=O)C12C3C4C1C1C2C3C41C#N)C(C)C (stereo not drawn) ... < 3.29
CC1(C)C(O)C[C@]23CCC[C@](C)(C[C@@H](O)C12)C3 (stereo partly drawn) ... < 3.70
CCOC(=O)/C=C/n1c2ccccc2c(=O)c2cc(OC)ccc21 ... < 4.65
c1ccc(C2N=C(c3ccccn3)C(c3ccccn3)=NC2c2ccccc2)cc1 (stereo not drawn) ... < 5.01
O=[N+]([O-])c1ccc(-c2cc(O)c3nc4ccccc4n3c2)cc1 ... < 3.70
O=c1[nH]nc(Cc2ccc(Cl)cc2)n1Nc1ccccc1 ... < 3.70
COc1cccc(CC2C(=O)NC(=O)NC2=O)c1 ... < 3.70
CCOC(=O)c1nnsc1NC(=O)NCCCCCCn1c(=O)n(CCCCCCNC(=O)Nc2snnc2C(=O)OCC)c(=O)n(CCCCCCNC(=O)Nc2snnc2C(=O)OCC)c1=O ... < 3.70
O=C1C2C3CC(C4C5C=CC(C5)C34)C2C2C3CC(C12)C1C2C=CC(C2)C31 (stereo not drawn) ... < 4.54
Cc1cccnc1NC(=S)Nc1ncccc1C ... 3.73

Provide pIC50 values for the following items, in order.
1. CC1(C)CC[C@]2(C(=O)O)C(O)CC3(C)C(=CCC4[C@@]5(C)CC[C@H](OS(=O)(=O)O)C(C)(C)C5CC[C@]43C)[C@@H]2C1 (stereo partly drawn)
2. CC1c2c(cc(=O)n(Cc3ccccc3)c2O)C(=O)N1C (stereo not drawn)
3. O=C(O)c1ccc(CS(=O)(=O)c2ccc(Cl)cc2)c([N+](=O)[O-])c1
4. Nc1cnc2c(c1)c(=O)nc1n2CCS1
5. O=C(c1cccs1)N(C(=O)N1CCC(c2ccccc2)CC1)c1ccccc1
6. CN1CN(c2ccccc2)C2(CCN(C(=O)OC(C)(C)C)CC2)C1=O
7. C=C(Cn1cnc2c(N)ncnc21)C(=O)OC
8. CC(=O)Oc1cc(S(=O)(=O)Nc2n[nH]c(Nc3ccc(C)cc3)n2)c(S)cc1Cl

Out:
["< 3.66", 3.95, 3.49, 3.93, "< 3.70", "< 4.00", 5.11, 3.58]

---

- Test system: CEM cells HIV-1 protection, formazan growth assay
- method: NCI AIDS Antiviral Assay
- condition info: measured here: growth of uninfected CEM cells
Record form. Attribute: IC50. Fill in for each entry.

Below, 2 molecules whose answers are already recorded.
O=[N+]([O-])c1ccc(-c2ccc(C3=Nn4c(CNc5ccccc5Cl)nnc4SC3)o2)cc1 ... > 11.2 µM
CC(=O)O[C@@H]1CC[C@@]2(C)C(=O)C34C[C@@]5(C)C([C@@H](C)CCCC(C)C)CCC5(C)[C@](O)(O3)C(=O)[C@H]4C2C1(C)C (stereo partly drawn) ... > 18.6 µM

Now, please, on to the next molecule.
In: What value of IC50 has been recorded for this entry: CC(=O)c1ccc(NC(=O)C(=O)C(C#N)CC(C)(C)C=O)cc1 (stereo not drawn)
Out: > 83.2 µM

---

- Test system: CEM cells HIV-1 protection, formazan growth assay
- method: NCI AIDS Antiviral Assay
- condition info: measured here: growth of uninfected CEM cells
pIC50: −log10 of the molar value.
Record form. Attribute: pIC50. Fill in for each entry.

Provide pIC50 values for the following items, in order.
1. CN(C)NP(=O)(NN(C)C)NN(C)C
2. O=C(Nc1c(-c2nc3ccccc3[nH]2)sc(=S)n1-c1ccccc1)c1ccccc1
3. CC1CCC(C(C)C)/C(=N/NC(=O)CC#N)C1 (stereo unspecified)
4. O=c1[nH]cnc(O)c1N=Nc1ccc(/C=C/c2ccc(N=Nc3c(O)nc[nH]c3=O)cc2S(=O)(=O)O)c(S(=O)(=O)O)c1
5. COC(=O)C1C(=O)N(C)c2cc(C)c(C)cc2C1(C)C (stereo unspecified)
6. CC(C)(C)OC(=O)N1CCC(NC(=O)NC2CCN(C(=O)OC(C)(C)C)CC2)CC1

Out:
1: < 3.70; 2: < 5.47; 3: < 3.70; 4: < 4.20; 5: < 3.70; 6: < 3.70

Provide pIC50 values for the following items, in order.
1. CCCCON1C[C@@H](O)C(O)[C@@H](O)C1 (stereo partly specified)
2. O=[N+]([O-])c1ccc(Cc2ccccc2)cc1
3. O=S1(=O)c2ccccc2N2CCCc3cc(Cl)cc1c32
4. CCOC(=O)C1=C(O)CC(=O)N=C1N1CCCC1
5. N#Cc1ccc(N2CCOCC2)cc1

Out:
1. < 3.70
2. < 4.20
3. < 3.70
4. < 3.70
5. < 3.70
